GI50 by entry:
Test system: M14
Experiment: NCI tumour cell line growth inhibition, 48 h
Calls of active or inactive are those of the source. Cut-off read from the data, not from the text of the source: active = GI50 up to about 1.1 µM and inactive = higher.

compound: CN1CCN(Cc2cc3c(nn2)-c2ccccc2C3=O)CC1
GI50: 31.2 µM (inactive)
//
compound: C=C1CC2OC2(C(=O)O[C@H]2CCC3[C@@H]4CCC5=CC(=O)CC[C@]5(C)C4CC[C@@]32C)C1=O (some centres undefined)
GI50: 7.23 µM (inactive)
//
compound: COc1cc(O)c2c(=O)c3ccccc3n(C)c2c1
GI50: > 100 µM (inactive)
//
compound: Cc1ccc2[nH]c3[nH]c(=O)[nH]c(=O)c3c2c1
GI50: > 100 µM (inactive)

----------
GI50 by entry:
Test system: Malme-3M
Assay: NCI tumour cell line growth inhibition, 48 h
Active and inactive are the calls of the source. No stated cut-off is given here; in the data, active = GI50 up to about 1.1 µM and inactive = higher.
measured_quantity: GI50

compound: N#CCc1ccc(C(C#N)/C(CCCC(=O)Nc2cccc([N+](=O)[O-])c2)=N/NC(N)=S)cc1 (configuration not stated)
measured_quantity: GI50
assay_value: > 100 µM (inactive)

compound: CC1(C)COC(c2cccc3c2C(=O)c2cccc(Cl)c2-3)=N1
measured_quantity: GI50
assay_value: 84.7 µM (inactive)

compound: COc1cc(Nc2c(C#N)[n+]([O-])c3ccccc3[n+]2[O-])cc(OC)c1OC
measured_quantity: GI50
assay_value: 35.2 µM (inactive)

compound: Cc1ccc(C)c(C(=O)CC2OC(O)C(Cl)C2Cl)c1 (configuration not stated)
measured_quantity: GI50
assay_value: 67.5 µM (inactive)

compound: CC(=O)c1nc2ccccc2n1CC(=O)c1ccc(Cl)cc1
measured_quantity: GI50
assay_value: 3.19 µM (inactive)

compound: O=C(/C=C1\C[C@H]2C=Nc3ccccc3C(=O)N2C1)NCCCCNC(=O)/C=C1\C[C@H]2C=Nc3ccccc3C(=O)N2C1
measured_quantity: GI50
assay_value: 6.81 µM (inactive)

compound: Cc1cc2c(c(=O)o1)C1=S(SC(c3ccccc3)=C1)S2 (configuration not stated)
measured_quantity: GI50
assay_value: 30.1 µM (inactive)

compound: COC(NC(=O)Nc1ccc(C)cc1)(C(F)(F)F)C(F)(F)F
measured_quantity: GI50
assay_value: 36.3 µM (inactive)

compound: NC1=NN(c2ccccc2)C(=O)C1/C(=N\NC(=O)c1cc2ccccc2cc1O)C(=O)Nc1ccc(Cl)c(Cl)c1 (configuration not stated)
measured_quantity: GI50
assay_value: 33 µM (inactive)

compound: C=C1CC2OC2(C(=O)O[C@H]2CCC3[C@@H]4CCC5=CC(=O)CC[C@]5(C)C4CC[C@@]32C)C1=O (some centres not stated)
measured_quantity: GI50
assay_value: 6.56 µM (inactive)

compound: Cc1ccc(/N=N/c2c(O)ccc3cc(S(=O)(=O)O)cc(S(=O)(=O)O)c23)cc1
measured_quantity: GI50
assay_value: > 100 µM (inactive)

compound: O=C(/C=C1\N=C(c2ccccc2)N(c2ccc3c(c2)Sc2cc(N4C(=O)/C(=C/C(=O)/C=C/c5ccccc5)N=C4c4ccccc4)ccc2N3)C1=O)/C=C/c1ccccc1
measured_quantity: GI50
assay_value: 26.1 µM (inactive)

compound: CC1=C(O)C(O)=C(C2=C(O)C(O)=C(C)C(=O)C2=O)C(=O)C1=O
measured_quantity: GI50
assay_value: 20.8 µM (inactive)

compound: CC(=O)N(CN1C(=O)CCC1C(=O)O)c1cccc(O)c1 (configuration not stated)
measured_quantity: GI50
assay_value: > 100 µM (inactive)

compound: O=c1c2cc(S(=O)(=O)O)ccc2nc(COc2ccc(Oc3ccc(Cl)cc3Cl)cc2)n1-c1ccc(Oc2ccc(Cl)cc2)cc1Cl
measured_quantity: GI50
assay_value: 28.1 µM (inactive)

compound: O=C(Cn1c2c(c3ccccc31)CCCC2)NC1CCCCC1
measured_quantity: GI50
assay_value: > 100 µM (inactive)

compound: COc1c(-c2nc3ccc(N4CCN(C)CC4)cc3[nH]2)cc(OC)c2[nH]c(CO)nc12
measured_quantity: GI50
assay_value: > 100 µM (inactive)
